MEASURED_TARGET: Sigma 2 receptor
TEST_SUMMARY: Displacement of [3H]DTG from sigma 2 receptor in rat liver membranes
MEASUREMENT_NAME: Ki (nM)

{"MOLECULE": "COc1ccc2c(c1)CCCC2CCCCN1CCCCC1 (stereo not given)", "REPORTED_MEASUREMENT": 48.7}
{"MOLECULE": "COc1ccc2c(CCCN3CCCC[C@H]3C)cccc2c1", "REPORTED_MEASUREMENT": 86.2}
{"MOLECULE": "COc1ccc2c(CCCCN3CCC[C@H](C)C3)cccc2c1", "REPORTED_MEASUREMENT": 32.7}
{"MOLECULE": "COc1ccc2c(CCCCN3CCC(C)(C)CC3)cccc2c1", "REPORTED_MEASUREMENT": 17.9}
{"MOLECULE": "COc1ccc2c(CCCN3CCC(C)(C)CC3)cccc2c1", "REPORTED_MEASUREMENT": 26.3}
{"MOLECULE": "COc1ccc2c(CCCCN3CCCCC3(C)C)cccc2c1", "REPORTED_MEASUREMENT": 28.6}
{"MOLECULE": "COc1ccc2c(CCCN3CCCC[C@@H]3C)cccc2c1", "REPORTED_MEASUREMENT": 104}
{"MOLECULE": "COc1ccc2c(CCCN3CCC[C@H](C)C3)cccc2c1", "REPORTED_MEASUREMENT": 59.3}
{"MOLECULE": "COc1ccc2c(CCCCN3CCC(C)CC3)cccc2c1", "REPORTED_MEASUREMENT": 17.9}
{"MOLECULE": "COc1ccc2c(CCCN3CCC(C)CC3)cccc2c1", "REPORTED_MEASUREMENT": 38.9}
{"MOLECULE": "COc1ccc2c(CCCN3CCC[C@@H](C)C3)cccc2c1", "REPORTED_MEASUREMENT": 60.2}
{"MOLECULE": "COc1ccc2c(c1)CCCC2CCCN1CCCCC1(C)C (stereo not given)", "REPORTED_MEASUREMENT": 115}
{"MOLECULE": "COc1ccc2c(CCCCN3CCC[C@@H](C)C3)cccc2c1", "REPORTED_MEASUREMENT": 64}
{"MOLECULE": "COc1ccc2c(c1)CCCC2CCCCN1CCCCC1(C)C (stereo not given)", "REPORTED_MEASUREMENT": 29.5}
{"MOLECULE": "COc1ccc2c(c1)CCCC2CCCN1CCC(C)(C)CC1 (stereo not given)", "REPORTED_MEASUREMENT": 31.4}

----------
Species on record: Cavia porcellus
TEST_SUMMARY: Selectivity for guinea pig delta8-delta7 sterol isomerase (SI) site over guinea pig sigma 1 receptor
So basically: is Ratio Ki under 3? Then 1 (yes). Not under? Then 0 (no).

{"STRUCTURE_SMILES_STRING": "COc1ccc2c(CCCCN3CCCCC3(C)C)cccc2c1", "CAT": "1 (yes)"}
{"STRUCTURE_SMILES_STRING": "COc1ccc2c(CCCN3CCCCC3(C)C)cccc2c1", "CAT": "1 (yes)"}
{"STRUCTURE_SMILES_STRING": "COc1ccc2c(CCCCN3CCCC[C@@H]3C)cccc2c1", "CAT": "0 (no)"}
{"STRUCTURE_SMILES_STRING": "COc1ccc2c(CCCN3CCCC(C)(C)C3)cccc2c1", "CAT": "0 (no)"}
